- SYSTEM_UNDER_TEST: thymidine phosphorylase obtained from human placenta (Homo sapiens, UniProt P19971)
- Sequence (P19971 11-482): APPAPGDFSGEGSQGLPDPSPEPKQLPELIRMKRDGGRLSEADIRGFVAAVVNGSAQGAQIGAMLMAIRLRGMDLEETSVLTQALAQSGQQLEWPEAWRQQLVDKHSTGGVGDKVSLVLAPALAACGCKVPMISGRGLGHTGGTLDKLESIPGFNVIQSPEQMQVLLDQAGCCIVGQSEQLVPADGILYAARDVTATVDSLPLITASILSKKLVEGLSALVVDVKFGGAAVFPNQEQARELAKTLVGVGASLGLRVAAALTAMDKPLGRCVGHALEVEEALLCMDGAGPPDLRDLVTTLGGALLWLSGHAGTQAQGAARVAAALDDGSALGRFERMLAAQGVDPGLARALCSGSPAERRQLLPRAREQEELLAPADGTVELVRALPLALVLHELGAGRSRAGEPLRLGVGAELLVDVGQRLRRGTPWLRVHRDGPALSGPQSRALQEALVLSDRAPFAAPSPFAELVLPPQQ
MEASURED_QUANTITY: IC50

**Query** // query IC50 value for entry Cc1cn(COCCO)c(=O)[nH]c1=O [Acyclothymidine]
**Result** > 1000 µM
